# Tested on: P. aeruginosa SR01332
# assay_text: MIC, CLSI broth microdilution, Test Example 2
# Format: cell-based
# condition_set: Pseudomonas aeruginosa, SR01332; VIM-11 MBL producing strain (carbapenem resistance strain); cation-adjusted Iso-Sensitest broth containing human Apo-transferrin; 5×10^5 cfu/mL; read-out: Minimum Inhibitory Concentration (MIC) P. aeruginosa SR01332
parameter: MIC (µg/mL)

1. CC(C)(O/N=C(\C(=O)N[C@@H]1C(=O)N2C(c3nnn[n-]3)=C(C[N+]3(CCNC(=O)c4ccc(O)c(O)c4Cl)CCCC3)CS[C@H]12)c1csc(N)n1)C(=O)[O-].[Na+]
4
2. CC(C)(O/N=C(\C(=O)N[C@@H]1C(=O)N2C(c3nnn[n-]3)=C(C[n+]3ccc(CNC(=O)c4ccc(O)c(O)c4Cl)cc3)CS[C@H]12)c1nsc(N)n1)C(=O)[O-].[Na+]
1
3. CC(C)(O/N=C(\C(=O)N[C@@H]1C(=O)N2C(c3nnn[n-]3)=C(C[n+]3ccc(NC(=O)c4ccc(O)c(O)c4Cl)cc3)CS[C@H]12)c1nsc(N)n1)C(=O)[O-].[Na+]
2
4. Nc1nc(/C(=N/O[C@@H](CC(=O)O)C(=O)[O-])C(=O)N[C@@H]2C(=O)N3C(c4nnn[nH]4)=C(C[N+]4(CCNC(=O)c5cc(O)c(O)c(F)c5)CCCC4)CS[C@H]23)cs1
4
5. Nc1nc(/C(=N/O[C@@H](CC(=O)[O-])C(=O)[O-])C(=O)N[C@@H]2C(=O)N3C(c4nnn[n-]4)=C(C[N+]45CCC[C@H]4CN(C(=O)c4ccc(O)c(O)c4Cl)CC5)CS[C@H]23)cs1.[Na+].[Na+] (some centres unmarked)
8

----------
# Test system: K. pneumoniae ATCC700603
# assay_text: MIC, CLSI broth microdilution, Test Example 2
# Type: cell-based
# condition_set: Klebsiella pneumoniae, ATCC700603; SHV18 ESBL producing strain; cation-adjusted Iso-Sensitest broth containing human Apo-transferrin; 5×10^5 cfu/mL; read-out: Minimum Inhibitory Concentration (MIC) K. pneumoniae ATCC 700603
parameter: MIC (µg/mL)

1) CC(C)(O/N=C(\C(=O)N[C@@H]1C(=O)N2C(c3nnn[nH]3)=C(C[N+]3(CCNC(=O)c4cc(O)c(O)c(F)c4)CCCC3)CS[C@H]12)c1nc(N)sc1Cl)C(=O)[O-]
0.125
2) CC(C)(O/N=C(\C(=O)N[C@@H]1C(=O)N2C(c3nnn[n-]3)=C(C[n+]3ccc4cc(O)c(O)cc4c3)CS[C@H]12)c1nc(N)sc1Cl)C(=O)[O-].[Na+]
0.063
3) CC(C)(O/N=C(\C(=O)N[C@@H]1C(=O)N2C(c3nnn[n-]3)=C(C[n+]3ccc(NC(=O)c4ccc(O)c(O)c4Cl)cc3)CS[C@H]12)c1nsc(N)n1)C(=O)[O-].[Na+]
0.25
4) CC(C)(O/N=C(\C(=O)N[C@@H]1C(=O)N2C(c3nnn[nH]3)=C(C[N+]3(CCNC(=O)c4cc(O)c(O)c(F)c4)CCCC3)CS[C@H]12)c1nsc(N)n1)C(=O)[O-]
0.25
5) CC(C)(O/N=C(\C(=O)N[C@@H]1C(=O)N2C(c3nnn[nH]3)=C(C[N+]3(C)CCN(C(=O)c4ccc(O)c(O)c4Cl)CC3)CS[C@H]12)c1nsc(N)n1)C(=O)O.[Na+]
0.25
6) CC(C)(O/N=C(\C(=O)N[C@@H]1C(=O)N2C(c3nnn[n-]3)=C(C[n+]3ccc4cc(O)c(O)cc4c3)CS[C@H]12)c1nsc(N)n1)C(=O)[O-].[Na+]
0.125
7) Nc1nc(/C(=N/O[C@@H](CC(=O)[O-])C(=O)[O-])C(=O)N[C@@H]2C(=O)N3C(c4nnn[n-]4)=C(C[N+]45CCC[C@H]4CN(C(=O)c4cc(O)c(O)c(F)c4)CC5)CS[C@H]23)cs1.[Na+].[Na+] (stereo partly drawn)
0.25
8) CC(C)(O/N=C(\C(=O)N[C@@H]1C(=O)N2C(c3nnn[n-]3)=C(C[N+]3(C)[C@@H]4CC[C@H]3C[C@@H](NC(=O)c3ccc(O)c(O)c3Cl)C4)CS[C@H]12)c1nc(N)sc1Cl)C(=O)[O-].[Na+] (stereo partly drawn)
0.25
9) Nc1nc(/C(=N/O[C@@H](CC(=O)O)C(=O)[O-])C(=O)N[C@@H]2C(=O)N3C(c4nnn[nH]4)=C(C[N+]4(CCNC(=O)c5ccc(O)c(O)c5F)CCCC4)CS[C@H]23)c(Cl)s1
0.5
10) CC(C)(O/N=C(\C(=O)N[C@@H]1C(=O)N2C(c3nnn[n-]3)=C(C[n+]3ccc(CNC(=O)c4ccc(O)c(O)c4Cl)cc3)CS[C@H]12)c1nc(N)sc1Cl)C(=O)[O-].[Na+]
0.125
11) CC(C)(O/N=C(\C(=O)N[C@@H]1C(=O)N2C(c3nnn[n-]3)=C(C[N@+]34CCC[C@H]3CN(C(=O)c3cc(O)c(O)c(F)c3)CC4)CS[C@H]12)c1nc(N)sc1Cl)C(=O)[O-].[Na+]
0.5
12) Nc1nc(/C(=N/O[C@@H](CC(=O)[O-])C(=O)[O-])C(=O)N[C@@H]2C(=O)N3C(c4nnn[n-]4)=C(C[N+]45CCC[C@H]4CN(C(=O)c4ccc(O)c(O)c4Cl)CC5)CS[C@H]23)cs1.[Na+].[Na+] (stereo partly drawn)
0.125
13) Nc1nc(/C(=N/O[C@@H](CC(=O)O)C(=O)[O-])C(=O)N[C@@H]2C(=O)N3C(c4nnn[nH]4)=C(C[N@+]45CCC[C@H]4CN(C(=O)c4ccc(O)c(O)c4Cl)CC5)CS[C@H]23)c(Cl)s1
0.5
